- System: MDA-MB-435
- ASSAY TEXT: NCI tumour cell line growth inhibition, 48 h
QUANTITY KIND: TGI

Study these solved cases before continuing.
compound="COc1cccc(N2C(=O)CSC2c2cccc(Oc3ccccc3)c2)c1 (stereo not drawn)" quantity_kind=TGI result_value="> 100 µM"
compound="CC1=NNC(=O)C1C1C(=O)NN=C(c2c[nH]c3ccccc23)C1Br (stereo not drawn)" quantity_kind=TGI result_value="> 100 µM"
compound=c1ccc(NN(Cc2cnccn2)c2ccccc2)cc1 quantity_kind=TGI result_value="> 100 µM"
compound=C=CCOC(=O)N1c2ccc(O[Si](C)(C)C(C)(C)C)cc2[C@@]23O[C@@]24[C@@H]1C#C/C=C\C#C[C@]3(O)C(OC)(OC)C[C@@H]4C quantity_kind=TGI result_value="> 100 µM"
compound=C=CCn1c(=O)c(C)cn(COCCO)c1=O quantity_kind=TGI result_value="> 100 µM"

Exercise: Given the compound S=C1c2ccc(Cl)cc2-n2cnnc2C2CSCN12 (stereo not drawn) , what is its reported TGI?
Key: > 100 µM

Exercise: What value of TGI has been recorded for this entry: `CN(C)CCNC(=O)Cn1ccc(=O)c2cc([N+](=O)[O-])ccc21`
Key: > 100 µM

Exercise: Quick one: TGI for `Cc1ccc(S(=O)(=O)NC(=O)Nc2nnc(S(N)(=O)=O)s2)cc1` ?
Key: > 100 µM

Exercise: I would be grateful if you could share the reported TGI for C=CCC1(C#N)C(=S)NC2=C(C(=O)CC(C)(C)C2)C1c1ccccc1 (stereo not drawn) .
Key: > 100 µM

Ref: PubChem BioAssay (NCI)
